Assign NanoBRET Fold Response to each entry below.
System name: FZD10 (Homo sapiens, UniProt Q9ULW2)
Construct: purchased Promega (in-house HiBiT-GPCR construct library, NanoBRET)
Sequence (Q9ULW2 21-581): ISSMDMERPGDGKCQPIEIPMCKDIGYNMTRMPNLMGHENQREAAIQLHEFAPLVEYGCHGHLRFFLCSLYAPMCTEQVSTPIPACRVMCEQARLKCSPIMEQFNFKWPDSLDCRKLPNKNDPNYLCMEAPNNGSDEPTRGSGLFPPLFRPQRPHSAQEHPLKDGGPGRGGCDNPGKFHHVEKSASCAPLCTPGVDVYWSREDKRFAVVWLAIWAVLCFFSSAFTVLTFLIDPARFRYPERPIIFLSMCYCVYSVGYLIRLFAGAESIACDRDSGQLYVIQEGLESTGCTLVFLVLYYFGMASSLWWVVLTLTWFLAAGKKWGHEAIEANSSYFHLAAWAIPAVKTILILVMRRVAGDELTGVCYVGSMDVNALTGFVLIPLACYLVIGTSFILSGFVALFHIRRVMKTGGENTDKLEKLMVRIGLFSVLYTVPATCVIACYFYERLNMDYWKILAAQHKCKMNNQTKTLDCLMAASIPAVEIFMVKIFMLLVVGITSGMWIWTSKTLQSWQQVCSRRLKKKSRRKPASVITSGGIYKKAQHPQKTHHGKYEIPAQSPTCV
Test details: NanoBRET screen HiBiT-FZD10 in HEK293
Assay type: binding
Experimental conditions: FZD10; tracer 0.1μM
Answers are plain numbers.

COc1ccccc1N1CCN(CCCCN2C(=O)c3ccc(CNC(=O)CCOCCNC(=O)c4ccc(CNC(=O)CCc5ccc6n5[B-](F)(F)[N+]5=C(c7ccc[nH]7)C=CC5=C6)cc4)cc3C2=O)CC1 [NAN-190-3-NB590] :: 0.92
COc1ccccc1N1CCN(CCCCN2C(=O)c3ccc(CNC(=O)CCOCCOCCOCCOCCNC(=O)CCc4ccc5n4[B-](F)(F)[N+]4=C(c6ccc[nH]6)C=CC4=C5)cc3C2=O)CC1 [NAN-190-2-NB590] :: 0.99
Cc1cc2c(s1)Nc1ccccc1N=C2N1CCN(CCCNC(=O)CCOCCOCCOCCOCCNC(=O)CCc2ccc3n2[B-](F)(F)[N+]2=C(c4ccc[nH]4)C=CC2=C3)CC1 [Olanzapine-a-2-NB590] :: 0.98
CC(C)N(CC[C@H](c1ccccc1)c1cc(CCNC(=O)c2ccc(CNC(=O)CCc3ccc4n3[B-](F)(F)[N+]3=C(c5ccc[nH]5)C=CC3=C4)cc2)ccc1O)C(C)C [Tolterodine-BZ-NB590] :: 0.97

--- query ---
Lookup: Can you look up the measured NanoBRET Fold Response of CCCn1c(=O)c2[nH]c(-c3ccc(OCC(=O)NCCNC(=O)CCOCCNC(=O)c4ccc(CNC(=O)CCc5ccc6n5[B-](F)(F)[N+]5=C(c7ccc[nH]7)C=CC5=C6)cc4)cc3)nc2n(CCC)c1=O [XAC-3-NB590] for me?
Found: 1.05
